Can you tell me AUC for the items I'm about to list?
Test: AUC in duodenally dosed Sprague-Dawley rat portal vein at 10 mg/kg
Assay type: ADME, organism-based
Set-up: dose 10 mg/kg, route intraduodenal
Details: portal vein plasma
Answers are plain numbers, in ng·h/mL.

Check out these entries, answers already filled in.
The recorded AUC for entry C[C@]12CC[C@@H]3c4ccc(O)cc4C[C@@H](CCCCCCCCC[S+]([O-])CCCC(F)(F)C(F)(F)F)[C@H]3[C@@H]1CC[C@@H]2O (stereo partly drawn) equals 56

The recorded AUC for entry C[C@]1(c2ccc(O)cc2)CSc2cc(O)ccc2[C@H]1CCCCCCCCC[S+]([O-])CCCC(F)(F)C(F)(F)F (stereo partly drawn) equals 88

Here's the next entry for you.
The recorded AUC for entry C[C@]1(c2ccc(O)cc2)CSc2cc(O)ccc2[C@H]1CCCCCCCCC(CCCC(F)(F)C(F)(F)F)C(=O)O (stereo partly drawn) equals 2510

Hello, the source for this data is ChEMBL document CHEMBL1146841, in case you need it.
